Reported values: MIC for E. coli 7 MP, one per item.
measurementName: MIC (µg/mL)

Here are 5 molecules together with their reported answers.
molecule | measurementName | unitAnnotation | valueObserved
O=C(NOC[C@@H]1CCCCN1)[C@@H]1CC[C@@H]2CN1C(=O)N2OC(F)(F)C(=O)O | MIC | µg/mL | 8
O=C(NOC[C@H]1CCCCCN1)[C@@H]1CC[C@@H]2CN1C(=O)N2OC(F)(F)C(=O)O | MIC | µg/mL | 4
O=C(NOC[C@@H]1CCCCCN1)[C@@H]1CC[C@@H]2CN1C(=O)N2OC(F)(F)C(=O)O | MIC | µg/mL | 4
NCCONC(=O)[C@@H]1CC[C@@H]2CN1C(=O)N2OC(F)(F)C(=O)O | MIC | µg/mL | 8
O=C(NOC[C@H]1CCCCN1)[C@@H]1CC[C@@H]2CN1C(=O)N2OC(F)(F)C(=O)O | MIC | µg/mL | 2

(1) O=C(NOC[C@@H]1CCCN1)[C@@H]1CC[C@@H]2CN1C(=O)N2OC(F)(F)C(=O)O
(2) O=C(NOC[C@H]1CCCN1)[C@@H]1CC[C@@H]2CN1C(=O)N2OC(F)(F)C(=O)O
(3) O=C(NOC1CCNC1)[C@@H]1CC[C@@H]2CN1C(=O)N2OC(F)(F)C(=O)O (some centres unmarked)
// query Order these by MIC, descending, and give the full ranking. # the answer lists labels in the order requested
// result 3, 1, 2
